Kindly state N2 permeability for each of the entries shown.
Give bare numbers, in Barrer.

*c1ccc2c(c1)Oc1ccc(C3(c4ccc5c(c4)Oc4ccc(*)cc4O5)c4ccccc4-c4ccccc43)cc1O2 (repeat unit): 1.04
*CC(*)(C)C(=O)OCCOCCOCCOCC (repeat unit): 2
*/C(C)=C(/*)c1ccc([Si](C)(C)C)cc1 (repeat unit): 100

Switching to the query record.
Identify the reported N2 permeability for the following entry. *c1cccc(N2C(=O)c3ccc(C(c4ccc5c(c4)C(=O)N(*)C5=O)(C(F)(F)F)C(F)(F)F)cc3C2=O)c1 (repeat unit)
0.419

---

reported metric: CH4 permeability

These recorded examples may help you get a feel for the data.
*C=CCCC* (repeat unit): 430 Barrer
*Oc1ccc(S(=O)(=O)c2ccc(Oc3c(C)cc(C(c4cc(C)c(*)c(C)c4)(C(F)(F)F)C(F)(F)F)cc3C)cc2)cc1 (repeat unit): 1.61 Barrer
*c1ccc(-c2nnc(-c3ccc(N4C(=O)c5ccc(C(c6ccc7c(c6)C(=O)N(*)C7=O)(C(F)(F)F)C(F)(F)F)cc5C4=O)cc3)o2)cc1 (repeat unit): 0.25 Barrer

Switching to the query record.
Identify the reported CH4 permeability for the following entry. *c1ccc(Oc2ccc3ccccc3c2-c2c(Oc3ccc(N4C(=O)c5ccc(C(c6ccc7c(c6)C(=O)N(*)C7=O)(C(F)(F)F)C(F)(F)F)cc5C4=O)cc3C)ccc3ccccc23)c(C)c1 (repeat unit)
0.28 Barrer
